Biological target: T1, human LILRB4 extracellular domain (ECD) recombinant protein (human, UniProt Q8NHJ6 22-259)
T1 construct: extracellular domain; also called LILRB4 ECD; LILRB4-ECD
Assay: Octet
Answer each item with its documented koff.
Answers are plain numbers, in s⁻¹.

{"binder": "h193 antibody No. 37 (h193-H7 / h193-K3) (antibody, V domains shown) VH: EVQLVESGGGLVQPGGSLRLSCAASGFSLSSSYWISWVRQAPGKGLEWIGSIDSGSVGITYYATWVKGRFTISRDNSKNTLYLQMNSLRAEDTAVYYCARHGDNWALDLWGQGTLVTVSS VL: DIQMTQSPSTLSASVGDRVTITCRASQSINSWLAWYQQKPGKAPKLLIYKASTLASGVPSRFSGSGSGTEFTLTISSLQPDDFATYYCQHGYIRGDLDNVFGGGTKVEIK", "koff [s⁻¹]": 0.00014}
{"binder": "h193 antibody No. 33 (h193-H6 / h193-K3) (antibody, V domains shown) VH: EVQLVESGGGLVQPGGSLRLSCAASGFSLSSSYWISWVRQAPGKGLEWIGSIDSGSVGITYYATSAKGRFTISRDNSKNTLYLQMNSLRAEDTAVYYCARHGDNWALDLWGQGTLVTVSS VL: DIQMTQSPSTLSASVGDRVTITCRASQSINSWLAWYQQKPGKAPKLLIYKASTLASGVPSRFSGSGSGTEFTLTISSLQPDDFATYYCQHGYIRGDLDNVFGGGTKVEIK", "koff [s⁻¹]": 0.000345}

Read off the recorded koff for h193 antibody No. 35 (h193-H7 / h193-K1) (antibody, V domains shown) VH: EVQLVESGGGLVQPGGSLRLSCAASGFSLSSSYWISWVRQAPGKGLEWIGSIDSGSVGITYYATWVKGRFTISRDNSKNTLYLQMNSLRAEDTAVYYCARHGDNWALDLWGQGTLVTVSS VL: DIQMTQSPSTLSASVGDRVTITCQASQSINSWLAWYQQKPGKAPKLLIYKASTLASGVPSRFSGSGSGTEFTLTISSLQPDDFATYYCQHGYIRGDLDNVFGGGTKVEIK
0.000148
